Could you please report measured pIC50 for the items listed next?
tested on: MDA MB 468 (breast); assay: In vitro cytotoxicity screen, alamar Blue assay; type: cell-based; settings: Homo sapiens, 168 h, 7 days post exposure
Give bare numbers, as −log10 of the molar value.

> print(dat)
                       smiles.structure         assay.system  endpoint.label  reported
1        COc1ccc(Oc2c(I)cc(C=O)cc2I)cc1  MDA MB 468 (breast)           pIC50      5.40
2  COC(=S)c1cc(I)c(Oc2ccc(OC)cc2)c(I)c1  MDA MB 468 (breast)           pIC50      5.82
3  COC(=O)c1cc(I)c(Oc2ccc(OC)cc2)c(I)c1  MDA MB 468 (breast)           pIC50      6.30

Recorded pIC50 (molecule `COCc1cc(I)c(Oc2ccc(OC)cc2)c(I)c1` ): 5.12

Hey, just so you know, these numbers are from patent US6169104A.
